B1: POMT2 (parent)
chain: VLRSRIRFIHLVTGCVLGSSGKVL

variants of: B1; test: protein stability index of a GFP-peptide fusion (GPS, HEK-293T) (PSI 1-6); higher = more stable; settings: c terminus: a fixed tail appended;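 further: lentivirally expressed fusions sorted by FACS into six bins by GFP to DsRed ratio, PSI derived from sequencing read proportions per bin multiplied by bin number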
Met means recorded protein stability index is 3 or above; Not met means it is below 3.

mutation-key	group
L11M	Not met
S19F	Not met
T13D	Not met
F8G	Not met
L24H	Met

Request: # bool: protein stability index of R3M >= 3
Result: Met

Request: # bool: protein stability index of S20Q >= 3
Result: Met

Request: # bool: protein stability index of S20M >= 3
Result: Not met

Request: # bool: protein stability index of I9H >= 3
Result: Met

Request: # bool: protein stability index of R3G >= 3
Result: Met

Request: # bool: protein stability index of V16W >= 3
Result: Not met

Request: # bool: protein stability index of R5F >= 3
Result: Not met

Request: # bool: protein stability index of R7A >= 3
Result: Met

Request: # bool: protein stability index of H10N >= 3
Result: Not met

Request: # bool: protein stability index of V16R >= 3
Result: Met

Request: # bool: protein stability index of C15I >= 3
Result: Not met

Request: # bool: protein stability index of V1Y >= 3
Result: Not met

Request: # bool: protein stability index of V12S >= 3
Result: Not met
